src = patent US20250270319A1

# target-or-system: recombinant cynomolgus CD33 protein (NovoProtein) (cynomolgus)
# Sequence (chain, as listed by the source limits assumed): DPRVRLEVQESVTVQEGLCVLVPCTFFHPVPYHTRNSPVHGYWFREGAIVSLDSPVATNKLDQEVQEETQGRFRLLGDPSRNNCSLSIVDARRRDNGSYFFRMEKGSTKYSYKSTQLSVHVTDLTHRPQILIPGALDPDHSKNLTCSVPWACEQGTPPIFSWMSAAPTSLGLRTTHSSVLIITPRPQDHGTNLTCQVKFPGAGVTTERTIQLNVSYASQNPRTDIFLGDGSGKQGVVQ
# protocol-details: ELISA, plate coated with recombinant CD33
Would you mind telling me the reported Relative maximal binding (cyno/human) of each entry?
When you answer, write just the number.

Entry anti-CD33 antibody 6C7H40 (antibody, V domains shown) VH: EVQLVESGGGLVQPGGSLRLSCAASGFTFSEYDMLWVRQAPGKGLEWVGEIRLKSNNYVTNYAASVKGRFTISRDDTKNSVYLQMNSLKTEDTGVYYCTRAGYYVPFAYWGQGTLVTVSS VL: QLMLTQSPSASASLGASVKLTCTLSSQHSTYTIEWYQQQPGKGPRYLMELKKEGSHSTGDGIPDRFSGSSSGAERYLTISSLQSEDEADYYCGVGHTIKEQFVYEFGGGTKLTVL , Relative maximal binding (cyno/human) reported as 0.03

Per the records, this binder ( anti-CD33 antibody 6C7H34 (antibody, V domains shown) VH: EVQLVESGGGLVQPGGSLRLSCAASGSTFSEYDMLWVRQAPGKGLEWVGEIRLKSNNYVTNYAASVKGRFTISRDDSKNSVYLQMNSLKTEDTGVYYCTRAGYYVPFAYWGQGTLVTVSS VL: QPMLTQSPSASASLGASVKLTCTLSSQHSTYTIEWYQQQPGKGPRYLMELKKEGSHSTGDGIPDRFSGSSSGAERYLTISSLQSEDEADYYCGVGLTIKEQFVYVFGGGTKLTVL ) has Relative maximal binding (cyno/human) equal to 0.01

Reported Relative maximal binding (cyno/human) of anti-CD33 antibody 6C7H31 (antibody, V domains shown) VH: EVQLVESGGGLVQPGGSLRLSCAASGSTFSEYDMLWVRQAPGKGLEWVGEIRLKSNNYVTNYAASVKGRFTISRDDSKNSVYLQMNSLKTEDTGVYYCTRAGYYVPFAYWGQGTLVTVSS VL: QPVLTQSPSASASLGASVKLTCTLSSQHSTYTIEWYQQQPEKGPRYLMELKKEGSHSTGDGIPDRFSGSSSGAERYLTISSLQSEDEADYYCGVGVTIKEQFVYVFGGGTKLTVL : 0.02
